All figures here come from the supplement of paper PMC11061612.

Test system: EB-3 (Burkitt's Lymphoma)
Test: Bliss excess, mean over the matrix (fraction); higher = more synergy;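 further: after 72 h of two-drug dosing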
READOUT_KIND: Bliss excess
Number only, no unit.

Exam item: # return recorded Bliss excess for input COc1cc2c(cc1OCCCCCOc1cc3c(cc1OC)C(=O)N1C=C(C)C[C@H]1C=N3)N=C[C@@H]1CC(C)=CN1C2=O [SG3199] + O=C(c1cc(Cc2n[nH]c(=O)c3ccccc23)ccc1F)N1CCN(C(=O)C2CC2)CC1 [Olaparib] (first compound max 0.001 µM, 7x7, partner max 10 µM)
Marked response: -0.0509

Exam item: Give reported Bliss excess value for C=CCn1c(=O)c2cnc(Nc3ccc(N4CCN(C)CC4)cc3)nc2n1-c1cccc(C(C)(C)O)n1 [AZD1775] + C[C@@H]1COCCN1C2=NC(=NC(=C2)C3(CC3)[S@](=N)(=O)C)C4=C5C=CNC5=NC=C4 [AZD6738] (first compound max 1 µM, partner max 10 µM)
Marked response: 0.0002

Exam item: Given Cc1nc(Nc2ncc(C(=O)Nc3c(C)cccc3Cl)s2)cc(N2CCN(CCO)CC2)n1 [Dasatinib] + CC(=O)Nc1cccc(-n2c(=O)n(C3CC3)c(=O)c3c(Nc4ccc(I)cc4F)n(C)c(=O)c(C)c32)c1 [Trametinib] (first compound max 2 µM, 7x7, partner max 1 µM) , respond with its Bliss excess.
Marked response: -0.0156

Exam item: Give the reported value of Bliss excess for this record: CN(CCO)CC[C@H](CSc1ccccc1)Nc1ccc(S(=O)(=O)NC(=O)c2ccc(N3CCC([C@@H](O)c4ccccc4-c4ccc(Cl)cc4)CC3)cc2)cc1S(=O)(=O)C(F)(F)F [AZD4320] + C[C@@H]1COCCN1C2=NC(=NC(=C2)C3(CC3)[S@](=N)(=O)C)C4=C5C=CNC5=NC=C4 [AZD6738] (first compound max 1 µM, 7x7, partner max 10 µM)
Marked response: -0.0287

Exam item: Provide Bliss excess value for the following compound: C[C@@H](c1ccc2nccn2c1)n1nnc2ncc(-c3cnn(C)c3)nc21 [Savolitinib] + Cc1c2c(nn1C)CSCc1cc(n(C)n1)CSc1cc(c3ccccc3c1)OCCCc1c(C(=O)O)n(C)c3c-2c(Cl)ccc13 [AZD5991] (first compound max 1 µM, 7x7, partner max 1 µM)
Marked response: -0.076

Exam item: Retrieve Bliss excess measured for C=CCn1c(=O)c2cnc(Nc3ccc(N4CCN(C)CC4)cc3)nc2n1-c1cccc(C(C)(C)O)n1 [AZD1775] + C1CN(CCC1(C(=O)N[C@@H](CCO)C2=CC=C(C=C2)Cl)N)C3=NC=NC4=C3C=CN4 [Capivasertib] (first compound max 3 µM, partner max 3 µM) and print it.
Marked response: -0.111

Exam item: Give the value of Bliss excess reported for the following: Cc1c2c(nn1C)CSCc1cc(n(C)n1)CSc1cc(c3ccccc3c1)OCCCc1c(C(=O)O)n(C)c3c-2c(Cl)ccc13 [AZD5991] + CN(C)CCCOc1ccc(-c2ccc3ncc4c(c3c2)n(C2CCOCC2)c(=O)n4C)cn1 [AZD0156] (first compound max 1 µM, 7x7, partner max 1 µM)
Marked response: -0.0005

* * *

Tested on: PC-14 (Lung Adenocarcinoma)
Assay: Bliss excess, mean over the matrix (fraction); higher = more synergy
Please go through the items and note down their Bliss excess.

Exam item: Give the observed Bliss excess of Cc1c2c(nn1C)CSCc1cc(n(C)n1)CSc1cc(c3ccccc3c1)OCCCc1c(C(=O)O)n(C)c3c-2c(Cl)ccc13 [AZD5991] + CN(C)CCCOc1ccc(-c2ccc3ncc4c(c3c2)n(C2CCOCC2)c(=O)n4C)cn1 [AZD0156] (first compound max 1 µM, 7x7, partner max 1 µM) for PC-14 (Lung Adenocarcinoma).
Marked response: 0.0236

Exam item: Identify measured Bliss excess obtained with PC-14 (Lung Adenocarcinoma) for O=C(c1cc(Cc2n[nH]c(=O)c3ccccc23)ccc1F)N1CCN(C(=O)C2CC2)CC1 [Olaparib] + CC1(C)CCC(CN2CCN(c3ccc(C(=O)NS(=O)(=O)c4ccc(NCC5CCOCC5)c([N+](=O)[O-])c4)c(Oc4cnc5[nH]ccc5c4)c3)CC2)=C(c2ccc(Cl)cc2)C1 [Venetoclax] (first compound max 10 µM, 7x7, partner max 1 µM) .
Marked response: -0.0071

Exam item: Under PC-14 (Lung Adenocarcinoma), report Bliss excess for CC1(C)CCC(CN2CCN(c3ccc(C(=O)NS(=O)(=O)c4ccc(NCC5CCOCC5)c([N+](=O)[O-])c4)c(Oc4cnc5[nH]ccc5c4)c3)CC2)=C(c2ccc(Cl)cc2)C1 [Venetoclax] + C[C@@H](Nc1cc(F)cc(F)c1)c1cc(C(=O)N(C)C)cc2c(=O)cc(N3CCOCC3)oc12 [AZD8186] (first compound max 1 µM, 7x7, partner max 3 µM)
Marked response: -0.0169

Exam item: Would you please give the reported Bliss excess of NC1(C(=O)N[C@@H](CCO)c2ccc(Cl)cc2)CCN(c2ncnc3[nH]ccc23)CC1 [Capivasertib] + COc1nnc2ccc(N3CCC(c4ccc(OCCN5CCN(C)C(=O)[C@H]5C)cc4)CC3)nn12 [AZD5153] (first compound max 10 µM, 7x7, partner max 1 µM) with PC-14 (Lung Adenocarcinoma)?
Marked response: 0.0461

Exam item: Using PC-14 (Lung Adenocarcinoma) as the test system, report measured Bliss excess of CCc1c2c(nc3ccc(O)cc13)-c1cc3c(c(=O)n1C2)COC(=O)[C@]3(O)CC [SN-38] + CN(C)CCCOc1ccc(-c2ccc3ncc4c(c3c2)n(C2CCOCC2)c(=O)n4C)cn1 [AZD0156] (first compound max 0.3 µM, 7x7, partner max 1 µM) .
Marked response: 0.0407

Exam item: Tell me Bliss excess of CC1(C)CCC(CN2CCN(c3ccc(C(=O)NS(=O)(=O)c4ccc(NCC5CCOCC5)c([N+](=O)[O-])c4)c(Oc4cnc5[nH]ccc5c4)c3)CC2)=C(c2ccc(Cl)cc2)C1 [Venetoclax] + C[C@@H]1COCCN1C2=NC(=NC(=C2)C3(CC3)[S@](=N)(=O)C)C4=C5C=CNC5=NC=C4 [AZD6738] (first compound max 1 µM, 7x7, partner max 10 µM) when tested on PC-14 (Lung Adenocarcinoma).
Marked response: -0.021

Exam item: Answer with Bliss excess of Cn1cnc2c(F)c(Nc3ccc(Br)cc3Cl)c(C(=O)NOCCO)cc21 [Selumetinib] + C[C@@H]1COCCN1C2=NC(=NC(=C2)C3(CC3)[S@](=N)(=O)C)C4=C5C=CNC5=NC=C4 [AZD6738] (first compound max 10 µM, 7x7, partner max 10 µM) measured for PC-14 (Lung Adenocarcinoma).
Marked response: -0.0022

Exam item: Under PC-14 (Lung Adenocarcinoma), report Bliss excess for COc1nnc2ccc(N3CCC(c4ccc(OCCN5CCN(C)C(=O)[C@H]5C)cc4)CC3)nn12 [AZD5153] + CC1(C)CCC(CN2CCN(c3ccc(C(=O)NS(=O)(=O)c4ccc(NCC5CCOCC5)c([N+](=O)[O-])c4)c(Oc4cnc5[nH]ccc5c4)c3)CC2)=C(c2ccc(Cl)cc2)C1 [Venetoclax] (first compound max 1 µM, 7x7, partner max 1 µM)
Marked response: -0.03

Exam item: // output Bliss excess; input C[C@@H](c1ccc2nccn2c1)n1nnc2ncc(-c3cnn(C)c3)nc21 [Savolitinib] + Cc1c2c(nn1C)CSCc1cc(n(C)n1)CSc1cc(c3ccccc3c1)OCCCc1c(C(=O)O)n(C)c3c-2c(Cl)ccc13 [AZD5991] (first compound max 1 µM, 7x7, partner max 1 µM) ; system PC-14 (Lung Adenocarcinoma)
Marked response: -0.0134

* * *

Exercise: state measured Bliss excess for each of the compounds provided.
Tested on: OV-90 (Ovarian Carcinoma)
Experiment: Bliss excess, mean over the matrix (fraction); higher = more synergy
Answer field: number only, no words.

Exam item: Using the record for NC1(C(=O)N[C@@H](CCO)c2ccc(Cl)cc2)CCN(c2ncnc3[nH]ccc23)CC1 [Capivasertib] + C[C@@H]1COCCN1C2=NC(=NC(=C2)C3(CC3)[S@](=N)(=O)C)C4=C5C=CNC5=NC=C4 [AZD6738] (first compound max 10 µM, 7x7, partner max 10 µM) , state its measured Bliss excess.
Marked response: -0.0159

Exam item: Answer with reported Bliss excess of C=CCn1c(=O)c2cnc(Nc3ccc(N4CCN(C)CC4)cc3)nc2n1-c1cccc(C(C)(C)O)n1 [AZD1775] + C[C@@H]1COCCN1C2=NC(=NC(=C2)C3(CC3)[S@](=N)(=O)C)C4=C5C=CNC5=NC=C4 [AZD6738] (first compound max 1 µM, partner max 10 µM)
Marked response: -0.102

Exam item: Read the entry COc1nnc2ccc(N3CCC(c4ccc(OCCN5CCN(C)C(=O)[C@H]5C)cc4)CC3)nn12 [AZD5153] + Cc1c2c(nn1C)CSCc1cc(n(C)n1)CSc1cc(c3ccccc3c1)OCCCc1c(C(=O)O)n(C)c3c-2c(Cl)ccc13 [AZD5991] (first compound max 1 µM, 7x7, partner max 1 µM) and write its reported Bliss excess.
Marked response: -0.0389

Exam item: Output Bliss excess of N#Cc1cnc(Nc2cc(NC[C@H]3CNCCO3)c(C(F)(F)F)cn2)cn1 [SRA737] + O=c1[nH]cc(F)c(=O)[nH]1 [5-Fluorouracil] (first compound max 10 µM, 7x7, partner max 20 µM)
Marked response: -0.0306
